# protocol notes: CellTiter-Glo luminescent readout of SW480 viability loss, NPC library primary (AID 1117343)
# assay conditions: CellTiter-Glo luminescence; at 20 µM (top of the series)

| molecule | unit of measurement | viability decrease (inhibition) |
| --- | --- | --- |
| O=C(NCCc1c[nH]c2ccccc12)c1cccnc1 | % | 71.3 |
| C[C@@H](CN(C)C)CN1c2ccccc2Sc2ccccc21 | % | 103 |
| Cc1c(C)c2c(c(C)c1OC(=O)c1cccnc1)CC[C@@](C)(CCC[C@H](C)CCC[C@H](C)CCCC(C)C)O2 | % | -20.2 |
| COc1ccc(/C(C)=C/C(=O)O)c(OC)c1 | % | -19.9 |
| CCCCCCCCCCCCCCCCCCO | % | 0.9 |
| Cc1ccc(C(=O)Oc2ccc(C(O)CNC(C)(C)C)cc2OC(=O)c2ccc(C)cc2)cc1 (stereo unspecified) | % | 137 |
| CN(C)CCOC(c1ccc(Cl)cc1)c1ccccn1 (stereo unspecified) | % | 6 |
| Nc1c(NC/C=C\COc2cc(CN3CCCCC3)ccn2)c(=O)c1=O | % | -4.4 |
| CC(C)C1CCC(C(=O)N[C@H](Cc2ccccc2)C(=O)O)CC1 (stereo partly specified) | % | 1 |
| Cc1cc(NS(=O)(=O)c2ccc(N)cc2)nc(C)n1 | % | 55 |
| OCCN1CCN(CCCN2c3ccccc3Sc3ccc(C(F)(F)F)cc32)CC1 | % | 157 |
| CC(=O)c1ccc(O)c(C(N)=O)c1 | % | -10.5 |
| CCCC(O)C(CC)CO (stereo unspecified) | % | 2.8 |
| CN(C)CCN(Cc1ccsc1)c1ccccn1 | % | -0.5 |
| NCc1ccc(S(N)(=O)=O)cc1 | % | 14.1 |
| COC(=O)c1cc(S(C)(=O)=O)ccc1OC | % | -3.4 |
| NS(=O)(=O)c1ccc(Cl)c(S(N)(=O)=O)c1 | % | -5.6 |
| c1ccc2c(c1)CCCC2C1=NCCN1 (stereo unspecified) | % | 11.2 |
| CCOc1cc(OCC)c(C(=O)CCC(=O)O)cc1OCC | % | 0.4 |
| Cc1onc(-c2ccccc2)c1-c1ccc(S(N)(=O)=O)cc1 | % | 54 |
| CS(=O)(=O)c1ccc(-c2cn3ccccc3n2)cc1 | % | 22.6 |
| NCC(=O)CCC(=O)O | % | 19.8 |
| Cc1ccc(Cl)c(Nc2ccccc2C(=O)O)c1Cl | % | 58.5 |
| NC(=S)N/N=C/c1cccnc1 | % | 38.7 |
| O=C1c2c(O)ccc(O)c2C(=O)c2c(NCCNCCO)ccc(NCCNCCO)c21 | % | 102 |
| CC(C)(C)c1ccc2c(S(=O)(=O)O)c(C(C)(C)C)ccc2c1 | % | 9 |
